System: Ub-PCNA levels in the nucleus of ES2 cells (USP1 activity)
MEASUREMENT_NOTES: ES2 Ub-PCNA immunofluorescence (IF) assay
Format: cell-based
CONDITION_SET: Homo sapiens, ES-2; ES2 cells, 3 hours, Ub-PCNA immunofluorescence; read-out: USP1 IC50 (Ub-PCNA)
pIC50: −log10 of the molar value.
Quick reference: pIC50 of the listed items.

Sample records with pIC50:
Req: Give pIC50 for the following compound: `CC(C)n1ncc(Cl)c1-c1cc2n(n1)CCC(=O)N2Cc1ccc(-c2ncccc2N2CCOCC2)c(Cl)c1`
Resp: 6.30 to 7.00

Req: Give the measured pIC50 for `CCn1cc(C(F)(F)F)nc1-c1ccc(CN2C(=O)CCn3nc(-c4c(Cl)cnn4C(C)C)nc32)cn1`
Resp: 6.30 to 7.00

Req: Return pIC50 for the following compound: CCn1cc(C(F)(F)F)nc1-c1ccc(NC2CCCn3nc(-c4c(C#N)cnn4C(C)C)cc32)cc1F (stereo not shown)
Resp: 6.30 to 7.00

Req: State its pIC50: `CCn1cc(C(F)(F)F)nc1-c1ccc([C@H](C)N2C(=O)CCn3nc(-c4c(OC)ncnc4C4CC4)cc32)cc1`
Resp: < 6.30

Req: Specify measured pIC50 for `COc1cc(C)nn1-c1ccc(CN2C(=O)CCn3nc(-c4c(Cl)cnn4C(C)C)cc32)cc1` .
Resp: > 7.00

Req: Provide measured pIC50 value, entry: CCn1cc(C(F)(F)F)nc1-c1ccc(CC2c3cc(-c4c(OC)ncnc4C4CC4)nn3CCN2C)cc1 (stereo not shown)
Resp: 6.30 to 7.00

Further cases:
Req: Provide one value: measured pIC50 of `COc1ncnc(C2CC2)c1-c1nc2n(n1)CCC(=O)N2[C@H](C)c1ccc(-c2nc(C(F)(F)F)c(Br)n2C)cc1`
Resp: > 7.00

---

solubility at 24 h listing for selected molecules.
MEASUREMENT_NOTES: ADME solubility determination in PBS at pH 2.0 and pH 7.4
Assay type: physicochemical
CONDITION_SET: phosphate buffered saline, 25 °C, pH 2, aqueous buffer, thermodynamic from solid, PBS pH 2.0, 25° C., read-out: Solubility at pH 2.0

Req: Report solubility at 24 h, nothing else, for this molecule: COc1ncnc(C2CC2)c1-c1cc2n(n1)CCC(=O)N2Cc1ccc(-c2nc(C(F)(F)F)cn2C(C)C)c(F)c1 [Example 18]
Resp: < 10 µM

Req: Supply reported solubility at 24 h belonging to this molecule: CCn1cc(C(F)(F)F)nc1-c1ccc(CN2C(=O)CCn3nc(-c4c(Cl)cnn4C(C)(C)COC)cc32)cc1F [Example 162]
Resp: ≥ 10 µM

Req: Supply reported solubility at 24 h belonging to this molecule: COc1cc(CN2C(=O)CCn3nc(-c4c(OC)ncnc4C(C)C)nc32)ccc1-c1nc(C(F)(F)F)cn1C(C)C [Example 46]
Resp: ≥ 10 µM

Req: Kindly indicate its recorded solubility at 24 h. Item: CCn1cc(C(F)(F)F)nc1-c1c(F)cc(CN2C(=O)CCn3nc(-c4c(OC)ncnc4C4CC4)nc32)cc1OC [Example 176]
Resp: ≥ 10 µM

New cases:
Req: Please give measured solubility at 24 h of the following entry: Cc1cnn(C(C)C)c1-c1nc2n(n1)CCC(=O)N2Cc1ccc(-c2nc(C(F)(F)F)cn2C(C)C)cc1 [Example 38]
Resp: < 10 µM

Req: Quickly give me recorded solubility at 24 h for COc1cccc(C)c1-c1cc2n(n1)CCCN2Cc1ccc(-c2nc(C(F)(F)F)cn2C)cc1 [Example 74]
Resp: ≥ 10 µM

Req: Check the records and state solubility at 24 h for CCn1cc(C(F)(F)F)nc1-c1ccc([C@@H](C)n2c(=O)ccn3nc(-c4c(OC)ncnc4C4CC4)cc23)cc1F [Example 333]
Resp: < 10 µM

Req: Please indicate solubility at 24 h recorded for CCn1cc(C(F)(F)F)nc1-c1ccc(CN2C(=O)CCn3nc(-c4c(Cl)cnn4C4COC4)cc32)cc1 [Example 154]
Resp: < 10 µM

Req: Assign solubility at 24 h to the following record: CCn1cc(C(F)(F)F)nc1-c1ccc(C(C)N2CCCn3nc(-c4c(Cl)cnn4C(C)C)cc32)cc1 (centres unmarked) [Example 65]
Resp: < 10 µM

Req: In one line, give reported solubility at 24 h of the entry CC(CF)n1cc(C(F)(F)F)nc1-c1ccc(NC2CCCn3nc(-c4c(OC(F)F)ncnc4C4CC4)cc32)cc1 (centres unmarked) [Example 249] .
Resp: < 10 µM

Req: Output measured solubility at 24 h for this item: CCn1cc(C(F)(F)F)nc1-c1ccc(CC2OCCn3nc(-c4c(Cl)cnn4C(C)C)cc32)cc1 (centres unmarked) [Example 265]
Resp: < 10 µM

Req: Indicate its recorded solubility at 24 h; the molecule in question is COc1ncnc(C2CC2)c1-c1cc2n(n1)CCC(=O)N2Cc1ccc(-c2nc(C(F)(F)F)cn2C)cc1 [Example 1]
Resp: ≥ 10 µM

Req: Look up solubility at 24 h of CCn1cc(C(F)(F)F)nc1-c1ccc(NC2CCCn3nc(-c4c(OC(F)F)ncnc4C4CC4)cc32)cc1 (centres unmarked) [Example 250] and report it.
Resp: < 10 µM

Req: Provide solubility at 24 h value for the following molecule: CCn1cc(C(F)(F)F)nc1-c1ccc(C(C)N2C(=O)CCn3nc(-c4c(Cl)cnn4C(C)C)cc32)cc1 (centres unmarked) [Example 113]
Resp: < 10 µM

---

# pIC50 per entry
SYSTEM_TESTED: USP1/UAF1 enzyme (Homo sapiens)
Sequence (O94782 whole entry): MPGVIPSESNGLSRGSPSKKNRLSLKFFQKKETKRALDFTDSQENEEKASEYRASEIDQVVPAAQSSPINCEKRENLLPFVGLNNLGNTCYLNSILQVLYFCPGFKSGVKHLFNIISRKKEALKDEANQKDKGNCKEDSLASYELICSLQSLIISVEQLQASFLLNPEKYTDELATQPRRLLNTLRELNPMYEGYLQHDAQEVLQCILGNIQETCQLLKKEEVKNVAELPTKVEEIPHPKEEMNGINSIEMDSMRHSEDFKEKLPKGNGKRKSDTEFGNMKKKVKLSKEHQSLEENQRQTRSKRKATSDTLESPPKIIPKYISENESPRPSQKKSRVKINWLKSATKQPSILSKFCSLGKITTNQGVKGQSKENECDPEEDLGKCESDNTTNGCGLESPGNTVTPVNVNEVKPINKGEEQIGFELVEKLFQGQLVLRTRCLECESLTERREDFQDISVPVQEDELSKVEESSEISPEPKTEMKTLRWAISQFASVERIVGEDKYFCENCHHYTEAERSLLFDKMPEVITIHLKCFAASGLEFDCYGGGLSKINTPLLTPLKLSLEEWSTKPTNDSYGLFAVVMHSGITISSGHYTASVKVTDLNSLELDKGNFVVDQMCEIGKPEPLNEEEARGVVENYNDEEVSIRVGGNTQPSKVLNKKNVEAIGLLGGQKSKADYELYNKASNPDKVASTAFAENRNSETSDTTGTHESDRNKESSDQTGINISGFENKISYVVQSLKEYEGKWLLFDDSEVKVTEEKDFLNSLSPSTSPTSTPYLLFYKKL
Sequence (Q8TAF3 whole entry partner): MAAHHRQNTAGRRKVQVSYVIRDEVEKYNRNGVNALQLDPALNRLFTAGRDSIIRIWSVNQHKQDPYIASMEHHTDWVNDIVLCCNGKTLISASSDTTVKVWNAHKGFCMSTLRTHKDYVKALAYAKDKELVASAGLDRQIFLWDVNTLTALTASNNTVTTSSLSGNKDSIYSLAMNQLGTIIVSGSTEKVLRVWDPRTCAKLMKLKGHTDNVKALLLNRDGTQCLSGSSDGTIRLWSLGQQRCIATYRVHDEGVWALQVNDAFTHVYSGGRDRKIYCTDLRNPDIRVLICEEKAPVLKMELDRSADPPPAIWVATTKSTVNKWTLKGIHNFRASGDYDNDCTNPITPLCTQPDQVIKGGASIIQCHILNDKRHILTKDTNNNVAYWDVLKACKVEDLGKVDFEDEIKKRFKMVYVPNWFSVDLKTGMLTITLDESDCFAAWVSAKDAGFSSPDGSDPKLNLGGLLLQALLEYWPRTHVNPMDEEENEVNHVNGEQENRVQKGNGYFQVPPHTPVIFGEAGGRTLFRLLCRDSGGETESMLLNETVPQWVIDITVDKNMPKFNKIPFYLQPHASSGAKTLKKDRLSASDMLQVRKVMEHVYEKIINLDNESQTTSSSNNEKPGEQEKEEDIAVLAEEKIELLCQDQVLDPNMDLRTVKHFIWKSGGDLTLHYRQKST
MEASUREMENT_NOTES: USP1/UAF1 deubiquitination assay (ubiquitin-rhodamine 110 substrate)
Format: biochemical
CONDITION_SET: read-out: USP1 IC50 (Ub-Rho)
pIC50: −log10 of the molar value.

Recorded results for 3 molecules are shown here.
Req: Name the recorded pIC50 of the molecule listed here: CCn1cc(C(F)(F)F)nc1-c1ccc(N[C@@H]2CCCn3nc(-c4c(Cl)cnn4C(C)C)cc32)cc1 (single isomer, unassigned)
Resp: > 7.00

Req: Item `COc1ncnc(C2CC2)c1-c1nc2n(n1)CCC(=O)N2[C@@H](C)c1ccc(-c2nc(C(F)(F)F)cn2C(C)C)c(F)c1` : provide pIC50
Resp: > 7.00

Req: # return recorded pIC50 for entry `Cc1ccn2ncnc(-c3ccc(CN4C(=O)CCn5nc(-c6c(Cl)cnn6C(C)C)cc54)cc3Cl)c12`
Resp: < 6.30

Continuing:
Req: Let me know recorded pIC50 for `CCn1cc(C(F)(F)F)nc1-c1ccc([C@@H](C)N2C(=O)CCn3nc(-c4c(OC)ncnc4C4CC4)cc32)cc1` , thanks.
Resp: > 7.00

Req: Tell me measured pIC50 for `COc1ncnc(C2CC2)c1-c1cc2n(n1)CCCN2Cc1ccc(-n2nc(C(F)(F)F)cc2C)cc1` please.
Resp: > 7.00

Req: Provide only the value of recorded pIC50 for `CCn1cc(C(F)(F)F)nc1-c1ccc(Cn2c(=O)c(C)cn3nc(-c4c(OC)ncnc4C4CC4)nc23)cc1`
Resp: > 7.00

Req: Retrieve pIC50 measured for CCn1cc(C(F)(F)F)nc1-c1ccc(C(C)N2CCCn3nc(-c4c(OC)ncnc4C4CC4)cc32)cc1 (centres unmarked) and print it.
Resp: > 7.00

Req: Tell us which pIC50 value is on record for `COc1ncnc(C2CC2)c1-c1nn2c(c1C)N(Cc1ccc(-c3nc(C(F)(F)F)cn3C)cc1)C(=O)CC2`
Resp: 6.30 to 7.00

Req: Look up pIC50 of `CCn1cc(C(F)(F)F)nc1-c1ccc(CN2C(=O)CCn3nc(-c4c(OC)ncnc4C4CC4)nc32)c(OC)c1F` and report it.
Resp: > 7.00

Req: Supply reported pIC50 belonging to this molecule: `CCn1cc(C)nc1-c1ccc(CN2C(=O)CCn3nc(-c4c(Cl)cnn4C(C)C)cc32)cc1`
Resp: 6.30 to 7.00

Req: Kindly indicate its recorded pIC50. Item: `Cc1nc(-c2ccc(CN3C(=O)CCn4nc(-c5c(Cl)cnn5C(C)C)cc43)cc2Cl)cn1C`
Resp: < 6.30

Req: Note pIC50 for the molecule shown: `COc1c(CN2C(=O)CCn3nc(-c4c(OC(F)F)ncnc4C4CC4)nc32)ccc(-c2nc(C(F)(F)F)cn2C(C)C)c1F`
Resp: > 7.00

Req: Given the molecule CCn1cc(C(F)(F)F)nc1-c1ccc([C@H](C)n2c(=O)ccn3nc(-c4c(OC)ncnc4C4CC4)cc23)cc1F (single isomer, unassigned) , write its reported pIC50.
Resp: > 7.00

Req: Hello, please tell me recorded pIC50 for this one: `COc1ncnc(C2CC2)c1-c1nc2n(n1)CCC(=O)N2[C@H](C)c1ccc(-c2nc(C(F)(F)F)cn2C2CC2)cc1`
Resp: > 7.00

Measured values drawn from patent US20230219965A1 for this set.
